Reference source: ChEMBL document CHEMBL3414538

IC50 reference
molecular target: Peroxisome proliferator-activated receptor delta (Homo sapiens, UniProt Q03181); experiment: Antagonist activity against pSG5-Gal4-tagged human PPAR-beta/delta ligand binding domain expressed in COS1 cells assessed as inhibition of GW501516-induced receptor activation incubated for 19 hrs by pGL3-5XUAS-SV40 luciferase reporter gene assay; type: cell-based, COS-1; conditions: read-out: IC50
Sequence (Q03181 whole entry, the tested form may be a part): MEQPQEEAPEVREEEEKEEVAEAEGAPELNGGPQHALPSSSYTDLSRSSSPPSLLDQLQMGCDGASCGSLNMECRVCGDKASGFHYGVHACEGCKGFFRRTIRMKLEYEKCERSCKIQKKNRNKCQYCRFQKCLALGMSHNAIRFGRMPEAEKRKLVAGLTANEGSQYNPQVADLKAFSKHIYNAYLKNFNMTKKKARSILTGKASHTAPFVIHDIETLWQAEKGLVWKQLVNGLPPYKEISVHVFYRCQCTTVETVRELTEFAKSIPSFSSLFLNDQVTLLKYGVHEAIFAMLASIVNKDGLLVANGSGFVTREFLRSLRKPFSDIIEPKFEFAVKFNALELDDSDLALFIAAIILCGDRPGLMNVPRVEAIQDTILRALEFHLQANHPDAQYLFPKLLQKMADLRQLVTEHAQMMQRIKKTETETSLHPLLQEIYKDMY
Enter your answer as a number in µM; do not include the unit.

1. Cc1nc(-c2ccc(C(F)(F)F)cc2)sc1C(=O)NCCS(=O)(=O)c1ccc(C(F)(F)F)cn1 ... 10

Kindly review the next compound as well.
Enquiry: Observed IC50 on Peroxisome proliferator-activated receptor delta (Homo sapiens, UniProt Q03181) for O=C(NCCS(=O)(=O)c1ccc(C(F)(F)F)cn1)c1ccc(Cl)cc1 , please.
Return: 5
